All values here come from the supplement of paper PMC9112550.

Tested on: Escherichia coli TOP10
Assay: shrunken log2 fold change of peptide-encoding DNA abundance (4.5 h post-induction vs induction); higher = less antimicrobial activity (less host growth inhibition)
Settings: time post-induction: 4.5 h; library: site-saturation at positions 5, 18, 19, 20
Mark T for reported shrunken log2 fold change of 0.003 or greater; mark F for anything smaller.

Solved cases (8 shown):
INSERT INTO assay_data (sequence_input, label_value) VALUES
  ('RRIRLRPPRLPRPRPRPLQSPRP', 'T'),
  ('RRIRKRPPRLPRPRPRPYYTPRP', 'F'),
  ('RRIRDRPPRLPRPRPRPAPMPRP', 'T'),
  ('RRIRCRPPRLPRPRPRPKEQPRP', 'T'),
  ('RRIRCRPPRLPRPRPRPMNWPRP', 'F'),
  ('RRIRDRPPRLPRPRPRPMFIPRP', 'F'),
  ('RRIRMRPPRLPRPRPRPLEVPRP', 'T'),
  ('RRIRLRPPRLPRPRPRPIWYPRP', 'F');

Ask: Would you say `RRIRERPPRLPRPRPRPVDNPRP` shows shrunken log2 fold change at minimum 0.003?
Result: F

Ask: Would you say `RRIRLRPPRLPRPRPRPAPSPRP` shows shrunken log2 fold change at minimum 0.003?
Result: T

Ask: Would you say `RRIRNRPPRLPRPRPRPMLVPRP` shows shrunken log2 fold change at minimum 0.003?
Result: F

----------
Tested on: Escherichia coli TOP10;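 further: peptides expressed intracellularly from a pBAD plasmid library in pooled LB shake-flask culture, induced with 0.3% L-arabinose, DNA abundance read by NGS, three biological replicates, DESeq2 with apeglm shrinkage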
Assay: shrunken log2 fold change of peptide-encoding DNA abundance (4.5 h post-induction vs induction); higher = less antimicrobial activity (less host growth inhibition)
Conditions: time post-induction: 4.5 h; library: site-saturation at positions 5, 18, 19, 20
measured_attribute: shrunken log2 fold change

INSERT INTO results (sequence_input, measured_attribute, result) VALUES
  ('RRIRMRPPRLPRPRPRPCPMPRP', 'shrunken log2 fold change', -0.0993),
  ('RRIRGRPPRLPRPRPRPDSTPRP', 'shrunken log2 fold change', 0.213),
  ('RRIRFRPPRLPRPRPRPFHWPRP', 'shrunken log2 fold change', -0.336),
  ('RRIRWRPPRLPRPRPRPMYKPRP', 'shrunken log2 fold change', -0.0607),
  ('RRIRCRPPRLPRPRPRPQLNPRP', 'shrunken log2 fold change', -0.188),
  ('RRIRTRPPRLPRPRPRPHRSPRP', 'shrunken log2 fold change', 0.0963);

Please supply shrunken log2 fold change for each of the following items, keeping them in order.
1. RRIRWRPPRLPRPRPRPDVKPRP
2. RRIRHRPPRLPRPRPRPDSIPRP
3. RRIRMRPPRLPRPRPRPENMPRP
4. RRIRVRPPRLPRPRPRPPWLPRP
5. RRIRGRPPRLPRPRPRPINCPRP
6. RRIRGRPPRLPRPRPRPHTTPRP
7. RRIRRRPPRLPRPRPRPLKIPRP

Result:
[-0.26, -0.0212, 0.0343, 0.365, -0.0247, 0.333, -0.0377]

Please supply shrunken log2 fold change for each of the following items, keeping them in order.
1. RRIRQRPPRLPRPRPRPYEAPRP
2. RRIRHRPPRLPRPRPRPWGVPRP
3. RRIRRRPPRLPRPRPRPGRTPRP
4. RRIRKRPPRLPRPRPRPMGLPRP
5. RRIRARPPRLPRPRPRPCCSPRP
6. RRIRNRPPRLPRPRPRPMGSPRP
7. RRIRPRPPRLPRPRPRPWCVPRP

Result:
1: -0.0514; 2: -0.141; 3: 0.315; 4: -0.000777; 5: 0.0121; 6: -0.01; 7: -0.133

Please supply shrunken log2 fold change for each of the following items, keeping them in order.
1. RRIRKRPPRLPRPRPRPSGMPRP
2. RRIRIRPPRLPRPRPRPAGWPRP
3. RRIRPRPPRLPRPRPRPNPPPRP

Result:
1: 0.115; 2: 0.582; 3: 0.188
